Field: MOR EC50. Provide a value for each of the binders that follow.
- subject-of-test: µ-opioid receptor (MOR), Human-ORPM1 (human, UniProt P35372 1-400)
- Sequence (P35372 whole entry): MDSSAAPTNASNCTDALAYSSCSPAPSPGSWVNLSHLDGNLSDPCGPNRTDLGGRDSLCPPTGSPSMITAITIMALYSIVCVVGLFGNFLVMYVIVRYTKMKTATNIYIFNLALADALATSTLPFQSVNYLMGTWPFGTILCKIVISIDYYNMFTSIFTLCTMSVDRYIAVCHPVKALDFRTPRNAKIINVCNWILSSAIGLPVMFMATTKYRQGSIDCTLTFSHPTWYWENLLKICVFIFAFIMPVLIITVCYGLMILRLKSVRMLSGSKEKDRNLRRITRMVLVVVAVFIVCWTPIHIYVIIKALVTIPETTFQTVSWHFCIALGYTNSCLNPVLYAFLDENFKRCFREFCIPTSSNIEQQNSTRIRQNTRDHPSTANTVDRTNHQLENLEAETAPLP
- test-details: cell-based or functional assay
Square brackets hold non-standard residues; d marks the D form. Ends that are not written are not given here. Dmt = Cc1cc(O)cc(C)c1C[C@H](N)C(=O)O; NMeI = CC[C@H](C)[C@H](NC)C(=O)O; β3hF = N[C@H](CC(=O)O)Cc1ccccc1; NMeA = CN[C@@H](C)C(=O)O; Sar = CNCC(=O)O

binder	MOR EC50
H-[Dmt][dA]G[β3hF][NMeI]K (also: homodimer: two monomers joined at X5 through a lysine linker (Dimer A)) [[DMT-((D)Ala)-Gly-(β-homoPhe)-(NMe-Ile)]2-Lys]	≤ 10 nM

Dear colleague, could you send me MOR EC50 for each of the items below? Thanks.
1. H-[Dmt][dA]G[β3hF][NMeA]K (also: homodimer: two monomers joined at X5 through a lysine linker (Dimer A)) [[DMT-((D)Ala)-Gly-(β-homoPhe)-(NMe-Ala)]2-Lys]
2. H-[Dmt][dA]G[β3hF][Sar]K (also: homodimer: two monomers joined at X5 through a lysine linker (Dimer A)) [[DMT-((D)Ala)-Gly-(β-homoPhe)-(Sar)]2-Lys]
3. H-[Dmt][dA]G[β3hF][Sar][dK] (not fully specified (C-terminus); printed as [DMT-((D)Ala)-Gly-(β-homoPhe)-(Sar)-(D-Lys)]2-DIG; also: homodimer: the two D-Lys joined through DIG linker (Dimer C)) [[DMT-((D)Ala)-Gly-(β-homoPhe)-(Sar)-(D-Lys)]2-DIG]
4. H-[Dmt][dA]G[β3hF][Sar][dK] (also: homodimer: two monomers joined at X5 through a D-lysine linker (Dimer A)) [[DMT-((D)Ala)-Gly-(β-homoPhe)-(Sar)]2-(D-Lys)]

(A)
1. ≤ 1 nM
2. ≤ 1 nM
3. ≤ 10 nM
4. ≤ 10 nM
